molecular target: human NaV1.8 (Homo sapiens (Human)); assay: Nav1.8 Qube automated patch-clamp assay; type: cell-based; settings: human NaV1.8 stably expressed in HEK 293 cells; automated 384-well patch-clamp; resting or inactivated state not specified
Sequence (Q9Y5Y9 whole entry): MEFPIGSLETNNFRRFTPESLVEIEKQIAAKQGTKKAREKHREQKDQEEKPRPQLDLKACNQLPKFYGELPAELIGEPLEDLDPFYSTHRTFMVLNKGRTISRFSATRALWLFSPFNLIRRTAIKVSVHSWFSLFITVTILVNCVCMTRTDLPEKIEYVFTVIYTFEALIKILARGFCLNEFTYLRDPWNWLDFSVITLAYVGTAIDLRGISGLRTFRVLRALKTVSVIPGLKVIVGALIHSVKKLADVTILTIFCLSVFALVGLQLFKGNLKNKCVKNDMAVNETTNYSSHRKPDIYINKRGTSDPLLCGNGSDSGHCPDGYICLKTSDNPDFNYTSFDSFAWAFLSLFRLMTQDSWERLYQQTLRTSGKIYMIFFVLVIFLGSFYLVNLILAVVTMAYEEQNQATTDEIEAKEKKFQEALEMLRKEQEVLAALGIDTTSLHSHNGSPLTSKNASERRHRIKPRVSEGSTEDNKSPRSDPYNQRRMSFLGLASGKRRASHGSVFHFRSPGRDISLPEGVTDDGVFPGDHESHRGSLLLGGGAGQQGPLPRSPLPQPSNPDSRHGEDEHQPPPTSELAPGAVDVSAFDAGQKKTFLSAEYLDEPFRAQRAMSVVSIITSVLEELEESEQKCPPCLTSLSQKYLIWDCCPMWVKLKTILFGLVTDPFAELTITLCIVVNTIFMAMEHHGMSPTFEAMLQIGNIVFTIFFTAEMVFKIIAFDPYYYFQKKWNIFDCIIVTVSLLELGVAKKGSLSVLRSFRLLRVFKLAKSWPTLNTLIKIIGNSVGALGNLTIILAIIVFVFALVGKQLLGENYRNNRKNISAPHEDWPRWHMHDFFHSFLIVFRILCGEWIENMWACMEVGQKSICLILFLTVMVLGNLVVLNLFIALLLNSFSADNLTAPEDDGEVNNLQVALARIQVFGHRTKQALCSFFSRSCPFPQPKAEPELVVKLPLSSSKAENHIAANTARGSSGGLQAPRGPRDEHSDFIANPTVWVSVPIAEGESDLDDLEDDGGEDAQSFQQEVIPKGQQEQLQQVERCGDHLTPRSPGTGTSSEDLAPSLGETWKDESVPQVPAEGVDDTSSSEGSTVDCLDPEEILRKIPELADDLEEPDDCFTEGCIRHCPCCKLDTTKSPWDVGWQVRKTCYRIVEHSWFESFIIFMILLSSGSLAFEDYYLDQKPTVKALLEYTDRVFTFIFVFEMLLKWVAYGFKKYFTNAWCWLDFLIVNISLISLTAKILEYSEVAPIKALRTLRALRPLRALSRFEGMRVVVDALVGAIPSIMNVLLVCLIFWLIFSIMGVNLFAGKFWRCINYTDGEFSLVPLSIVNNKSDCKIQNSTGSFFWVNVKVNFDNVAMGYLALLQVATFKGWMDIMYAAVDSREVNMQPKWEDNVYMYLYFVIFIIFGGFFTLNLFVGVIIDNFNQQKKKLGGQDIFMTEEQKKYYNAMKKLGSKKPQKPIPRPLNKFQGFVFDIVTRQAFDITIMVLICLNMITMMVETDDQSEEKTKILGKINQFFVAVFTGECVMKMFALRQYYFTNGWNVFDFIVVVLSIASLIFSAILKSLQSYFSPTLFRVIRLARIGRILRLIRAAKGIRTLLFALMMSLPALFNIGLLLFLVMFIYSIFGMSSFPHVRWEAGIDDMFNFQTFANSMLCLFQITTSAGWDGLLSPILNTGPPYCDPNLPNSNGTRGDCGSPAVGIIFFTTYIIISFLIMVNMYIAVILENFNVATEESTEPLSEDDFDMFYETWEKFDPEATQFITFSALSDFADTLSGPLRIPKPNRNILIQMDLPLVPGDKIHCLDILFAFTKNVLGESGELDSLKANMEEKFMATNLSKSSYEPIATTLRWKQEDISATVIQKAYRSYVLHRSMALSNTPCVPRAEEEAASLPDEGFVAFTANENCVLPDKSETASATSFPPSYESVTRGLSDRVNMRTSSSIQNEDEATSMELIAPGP
PROPERTY LABEL: IC50 (nM)

Please review the following examples before continuing.
MOLECULE	PROPERTY LABEL	REPORTED RESULT
Cn1nc(C(NC(=O)[C@@H]2CNC(=O)N2)c2ccc(Cl)cc2)cc1C(F)(F)F (single isomer, unassigned) [Example 75A]	IC50	58
O=C1NC[C@@H](C(=O)NC(c2ccc(OC(F)(F)F)c(Cl)c2)c2ccc(OC(F)(F)F)cn2)N1 (single isomer, unassigned) [Example 39B]	IC50	2.5
O=C1NC[C@@H](C(=O)NC(c2ccc(F)c(Cl)c2)c2nc3cccnc3s2)N1 (stereo partly shown) [Example 72]	IC50	74
Cc1nc(C(F)(F)F)sc1C(NC(=O)[C@@H]1CNC(=O)N1)c1ccc(Cl)cc1 (stereo partly shown) [Example 76]	IC50	35
O=C1NC[C@@H](C(=O)NC(c2ccc(Cl)cc2)c2cccc(OC(F)F)n2)N1 (single isomer, unassigned) [Example 74A]	IC50	19

(I) O=C1NC[C@@H](C(=O)NC(c2ccc(F)c(Cl)c2)[C@@H]2CC[C@H]2C(F)(F)F)N1 (single isomer, unassigned) [Example 67B]
(II) O=C1NC[C@@H](C(=O)NC(c2cnc(OCC(F)(F)F)cn2)c2ccc(F)c(Cl)c2F)N1 (single isomer, unassigned) [Example 51B]
Kindly identify the item with the lower IC50 figure among these two: I and II Kindly state the label of the option you pick.
II

====

biological target: human NaV1.8 (Homo sapiens (Human)); test: Nav1.8 Qube automated patch-clamp assay; assay type: cell-based; conditions: human NaV1.8 stably expressed in HEK 293 cells; automated 384-well patch-clamp; resting or inactivated state not specified
PROPERTY LABEL: IC50 (nM)

COMPOUND	IC50 [nM]
O=C1NC[C@@H](C(=O)NC(c2ccc(F)c(Cl)c2F)C2CCCCN2CC(F)(F)F)N1 (single isomer, unassigned) [Example 58D]	787
O=C1NC[C@@H](C(=O)NC(c2ccc(F)c(Cl)c2)[C@H]2CC[C@H](C(F)(F)F)CC2)N1 (single isomer, unassigned) [Example 32B]	67
O=C1NC[C@@H](C(=O)NC(CC2CCC(F)(F)CC2)c2ccc(F)c(Cl)c2F)N1 (single isomer, unassigned) [Example 25B]	189

(P) O=C1NC[C@@H](C(=O)NC(c2ccc(F)c(Cl)c2F)C2COC(C(F)(F)F)C2)N1 (single isomer, unassigned) [Example 79C]
(Q) N#Cc1ccc(C(NC(=O)[C@@H]2CNC(=O)N2)c2ccc(Cl)c(C(F)(F)F)c2)cc1 (single isomer, unassigned) [Example 60A]
(R) O=C1NC[C@@H](C(=O)NC(c2ccc(F)c(Cl)c2)c2cc3cc(Cl)ccc3o2)N1 (single isomer, unassigned) [Example 73A]
Put the entries in order of IC50, starting with the largest number. Rank them, then answer with their labels in that order.
P, Q, R
(P: 886 nM, Q: 3.1 nM, R: 0.2 nM)

====

target: human NaV1.8 (Homo sapiens (Human)); assay: Nav1.8 Qube automated patch-clamp assay; type: cell-based; conditions: human NaV1.8 stably expressed in HEK 293 cells; automated 384-well patch-clamp; resting or inactivated state not specified
PROPERTY LABEL: IC50 (nM)

Please review the following examples before continuing.
COMPOUND	UNITS OF MEASURE	IC50
C[C@@H]1C[C@H](C(NC(=O)[C@@H]2CNC(=O)N2)c2ccc(F)c(Cl)c2)C[C@H](C)N1CC(F)(F)F (single isomer, unassigned) [Example 15A]	nM	31
O=C1NC[C@@H](C(=O)NC(c2cnc(OC(F)F)nc2)c2ccc(F)c(Cl)c2F)N1 (single isomer, unassigned) [Example 55A]	nM	79
O=C1NC[C@@H](C(=O)NC(c2cnc(OCC(F)(F)F)cn2)c2ccc(F)c(Cl)c2F)N1 (single isomer, unassigned) [Example 51A]	nM	9.2
O=C1NC[C@@H](C(=O)NC(CC2CCC(C(F)(F)F)CC2)c2ccc(F)c(Cl)c2F)N1 (single isomer, unassigned) [Example 23B]	nM	4.9
O=C1NC[C@@H](C(=O)NC(c2cnc(C(F)(F)F)c(Cl)c2)c2ccc(Cl)c(C(F)F)n2)N1 (single isomer, unassigned) [Example 3A]	nM	9.7
O=C1NC[C@@H](C(=O)NC(c2cnc(C3CC3)c(Cl)c2)c2ccc(F)c(Cl)c2F)N1 (single isomer, unassigned) [Example 13B]	nM	38
N#Cc1ccc(C(NC(=O)[C@@H]2CNC(=O)N2)c2ccc(F)c(Cl)c2)nc1 (stereo partly shown)	nM	320
O=C1NC[C@@H](C(=O)NC(c2ccc(F)c(Cl)c2)c2ccc(F)c(Cl)c2)N1	nM	0.7
O=C1NC[C@@H](C(=O)NC(c2ccc(F)c(Cl)c2F)C2CCCCN2CC(F)(F)F)N1 (single isomer, unassigned) [Example 58C]	nM	130
O=C1NC[C@@H](C(=O)NC(c2cnc(OCC(F)(F)F)s2)c2ccc(F)c(Cl)c2F)N1 (single isomer, unassigned) [Example 35B]	nM	64

(A) O=C1NC[C@@H](C(=O)NC(CC2CCCOC2)c2ccc(F)c(Cl)c2F)N1 (single isomer, unassigned) [Example 26B]
(B) O=C1NC[C@@H](C(=O)NC(c2ccc(F)c(Cl)c2F)C23CC(C(F)(F)F)(C2)C3)N1 (single isomer, unassigned) [Example 27A]
(C) O=C1NC[C@@H](C(=O)NC(c2cnc(OC(F)F)nc2)c2ccc(F)c(Cl)c2F)N1 (single isomer, unassigned) [Example 64B]
(D) O=C1NC[C@@H](C(=O)NC(c2ccc(F)c(Cl)c2F)C2COC(C(F)(F)F)C2)N1 (single isomer, unassigned) [Example 79D]
(E) N#Cc1cccc(C(NC(=O)[C@@H]2CNC(=O)N2)c2ccc(F)c(Cl)c2)n1 (single isomer, unassigned) [Example 12B]
Put the entries in order of IC50, starting with the largest number. Rank them, then answer with their labels in that order.
A, D, E, C, B
(A: 22200 nM, D: 3680 nM, E: 1420 nM, C: 805 nM, B: 5.8 nM)

(a) N#Cc1ccc(C(NC(=O)[C@@H]2CNC(=O)N2)c2ccc(F)c(Cl)c2)cc1 (single isomer, unassigned) [Example 18B]
(b) O=C1NC[C@@H](C(=O)NC(CC2CCCOC2)c2ccc(F)c(Cl)c2F)N1 (single isomer, unassigned) [Example 26A]
(c) Cn1nc(C(F)(F)F)cc1C(NC(=O)[C@@H]1CNC(=O)N1)c1ccc(F)c(Cl)c1 (single isomer, unassigned) [Example 31A]
Ascending by IC50, please. Rank them, then answer with their labels in that order.
c, a, b
(c: 5.2 nM, a: 17 nM, b: 413 nM)

(1) O=C1NC[C@@H](C(=O)NC(c2ccc(OC(F)(F)F)cc2)c2cccc(Cl)c2)N1 (single isomer, unassigned) [Example 9B]
(2) O=C1NC[C@@H](C(=O)NC(CC2CCC(C(F)(F)F)CC2)c2ccc(F)c(Cl)c2F)N1 (single isomer, unassigned) [Example 23A]
Response body: label of entry with the larger IC50; valid values 1 , 2 . Kindly state the label of the option you pick.
2
